- system_name: HLA-A2402 (human)
- assay_conditions: remark: other sources report otherwise
recorded_metric: Ki (nM)
Express your answer in nM, writing the number without its unit.

binder	unit_abbreviation	observed_measurement
NLPGCSFSI (modifications not checked)	nM	8

I'd like to know its Ki. The binder in question is RMILMTHFF (modifications not checked)
6
